B1: HHH_rd1_0493 (parent)
chain: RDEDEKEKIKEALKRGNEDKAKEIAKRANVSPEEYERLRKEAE

# Variants of: B1
# PROTOCOL_SUMMARY: folding stability dG (cDNA display proteolysis); higher = more stable
# CONDITION: PBS, room temperature
RECORDED_ENDPOINT: folding stability dG (kcal/mol)

INSERT INTO measurements (mutant_id, recorded_endpoint, u, observed_measurement) VALUES
  ('A21W', 'folding stability dG', 'kcal/mol', 0.514),
  ('D4C', 'folding stability dG', 'kcal/mol', 2.96),
  ('R27C', 'folding stability dG', 'kcal/mol', 2),
  ('E18G', 'folding stability dG', 'kcal/mol', 2.06),
  ('I9P', 'folding stability dG', 'kcal/mol', 0.579),
  ('E3D', 'folding stability dG', 'kcal/mol', 3.11),
  ('E41M', 'folding stability dG', 'kcal/mol', 2.58),
  ('E18H', 'folding stability dG', 'kcal/mol', 2.94),
  ('K6F', 'folding stability dG', 'kcal/mol', 3.23),
  ('E11G', 'folding stability dG', 'kcal/mol', 2.34),
  ('E36D', 'folding stability dG', 'kcal/mol', 2.7),
  ('S31L', 'folding stability dG', 'kcal/mol', 2.21),
  ('R15P', 'folding stability dG', 'kcal/mol', 0.627),
  ('E41C', 'folding stability dG', 'kcal/mol', 1.88),
  ('K22C', 'folding stability dG', 'kcal/mol', 1.79),
  ('E34I', 'folding stability dG', 'kcal/mol', 1.79),
  ('I9A', 'folding stability dG', 'kcal/mol', 0.796),
  ('I24P', 'folding stability dG', 'kcal/mol', 0.59),
  ('E34T', 'folding stability dG', 'kcal/mol', 1.51),
  ('D19S', 'folding stability dG', 'kcal/mol', 2.93),
  ('A28Q', 'folding stability dG', 'kcal/mol', 2.23),
  ('N17C', 'folding stability dG', 'kcal/mol', 1.99),
  ('Y35M', 'folding stability dG', 'kcal/mol', 2.29),
  ('N29S', 'folding stability dG', 'kcal/mol', 2.42),
  ('E41F', 'folding stability dG', 'kcal/mol', 1.84),
  ('E33F', 'folding stability dG', 'kcal/mol', 1.96),
  ('L38G', 'folding stability dG', 'kcal/mol', 0.162),
  ('G16W', 'folding stability dG', 'kcal/mol', 0.968),
  ('L13S', 'folding stability dG', 'kcal/mol', 0.332),
  ('R37S', 'folding stability dG', 'kcal/mol', 2.27),
  ('D2N', 'folding stability dG', 'kcal/mol', 3),
  ('A12L', 'folding stability dG', 'kcal/mol', 3.02),
  ('A42P', 'folding stability dG', 'kcal/mol', 0.795),
  ('I9F', 'folding stability dG', 'kcal/mol', 0.774),
  ('I24N', 'folding stability dG', 'kcal/mol', 0.704),
  ('A42E', 'folding stability dG', 'kcal/mol', 1.25),
  ('D4V', 'folding stability dG', 'kcal/mol', 2.88),
  ('A28T', 'folding stability dG', 'kcal/mol', 2.25),
  ('E43H', 'folding stability dG', 'kcal/mol', 2.77),
  ('A28K', 'folding stability dG', 'kcal/mol', 1.82),
  ('R39Q', 'folding stability dG', 'kcal/mol', 2.2),
  ('R39D', 'folding stability dG', 'kcal/mol', 0.392),
  ('N17Q', 'folding stability dG', 'kcal/mol', 3.2),
  ('K40H', 'folding stability dG', 'kcal/mol', 3.01),
  ('K10L', 'folding stability dG', 'kcal/mol', 2.79),
  ('D2G', 'folding stability dG', 'kcal/mol', 2.95),
  ('E11A', 'folding stability dG', 'kcal/mol', 2.82),
  ('E11P', 'folding stability dG', 'kcal/mol', 0.82),
  ('E3S', 'folding stability dG', 'kcal/mol', 2.89),
  ('A28L', 'folding stability dG', 'kcal/mol', 3.25),
  ('A25V', 'folding stability dG', 'kcal/mol', 1.37),
  ('V30A', 'folding stability dG', 'kcal/mol', 0.849),
  ('I24Q', 'folding stability dG', 'kcal/mol', 1.13),
  ('A12F', 'folding stability dG', 'kcal/mol', 2.87),
  ('R15N', 'folding stability dG', 'kcal/mol', 3.17),
  ('E7D', 'folding stability dG', 'kcal/mol', 2.7),
  ('R15A', 'folding stability dG', 'kcal/mol', 3.36),
  ('K22L', 'folding stability dG', 'kcal/mol', 3.1),
  ('E33D', 'folding stability dG', 'kcal/mol', 2.64),
  ('E36L', 'folding stability dG', 'kcal/mol', 2.24),
  ('E5F', 'folding stability dG', 'kcal/mol', 4.03),
  ('K20L', 'folding stability dG', 'kcal/mol', 4.31),
  ('G16F', 'folding stability dG', 'kcal/mol', 1.55),
  ('E23C', 'folding stability dG', 'kcal/mol', 2.49),
  ('P32N', 'folding stability dG', 'kcal/mol', 2.63),
  ('A42S', 'folding stability dG', 'kcal/mol', 2.37),
  ('E7I', 'folding stability dG', 'kcal/mol', 3.06),
  ('E33M', 'folding stability dG', 'kcal/mol', 2.33),
  ('K6H', 'folding stability dG', 'kcal/mol', 3.07),
  ('A42L', 'folding stability dG', 'kcal/mol', 2.54),
  ('E41Q', 'folding stability dG', 'kcal/mol', 2.77),
  ('R39V', 'folding stability dG', 'kcal/mol', 2.65),
  ('P32K', 'folding stability dG', 'kcal/mol', 2.65),
  ('S31W', 'folding stability dG', 'kcal/mol', 1.27),
  ('N17G', 'folding stability dG', 'kcal/mol', 1.46),
  ('E5I', 'folding stability dG', 'kcal/mol', 4.07),
  ('K10E', 'folding stability dG', 'kcal/mol', 0.847),
  ('A12T', 'folding stability dG', 'kcal/mol', 1.43),
  ('A42T', 'folding stability dG', 'kcal/mol', 2.31),
  ('K6R', 'folding stability dG', 'kcal/mol', 3.3),
  ('D19E', 'folding stability dG', 'kcal/mol', 3.28),
  ('G16Q', 'folding stability dG', 'kcal/mol', 1.56),
  ('G16K', 'folding stability dG', 'kcal/mol', 1.73),
  ('E3N', 'folding stability dG', 'kcal/mol', 3);
